# assay_summary: qHTS of pediatric cancer cell lines to identify multiple opportunities for drug repurposing: Primary screen for BT-12 cells (AID 1347101); note: nearly all actives have a fitted effect of over 25% in size
# cond: BT-12 viability, CellTiter-Glo luminescence, 48 h; series mostly up to 57.3 µM
Results filed as inconclusive are left out. Calls of active or inactive are those of the source. Calls come from the whole dose curve; as a rule, active = well fitted cell-killing curve with a large enough effect; inconclusive = small, poorly fitted or top-dose-only effect; inactive = flat fitted curve, though single readings scatter.
Choose the fitting class; nothing outside active, inactive is accepted.

Please review the entries below; each comes with its answer.
C[C@H](CCC(=O)O)[C@H]1CC[C@H]2[C@@H]3[C@H](O)C[C@@H]4C[C@H](O)CC[C@]4(C)[C@@H]3CC[C@]12C	inactive
OC[C@H]1OC(O)C[C@@H](O)[C@H]1O (stereo not given in full)	inactive
C[N+](C)([O-])CCNc1ccc(NCC[N+](C)(C)[O-])c2c1C(=O)c1c(O)ccc(O)c1C2=O	inactive

Prompt: Just curious, what result did "COc1cc2c(cc1OC)[C@@H]1C(=O)c3ccc4c(c3O[C@@H]1CO2)C=CC(C)(C)O4" get here?
Completion: active

Prompt: Fill in: this test's call for "COC(=O)C=CC(=O)OC" is ___
Completion: inactive

Prompt: What did this assay record as the result for "COc1ccc(C(C)=O)c(O)c1" ?
Completion: active

Prompt: What outcome does the record of this test show for "COc1cc(OC)c(NC(=O)Nc2cc(C)on2)cc1Cl" ?
Completion: inactive

Prompt: Hey, what did the test say about "O=C1c2cccc(O)c2C(=O)c2c(O)cc(CO)cc21" ?
Completion: inactive

Prompt: Hey, what did the test say about "COC[C@H](NC(=O)c1cnc(C)s1)C(=O)N[C@@H](COC)C(=O)N[C@@H](Cc1ccccc1)C(=O)[C@@]1(C)CO1" ?
Completion: active

Prompt: Write down the call the test reported for this compound. Item: "CN(C)CC(=O)N1CCC(c2ccc(NC(=O)c3ncc(C#N)[nH]3)c(C3=CCCCC3)c2)CC1"
Completion: active

###

# assay_summary: Confirmatory screen NINDS Rhodamine qHTS for Zika virus inhibitors (AID 1347161); note: nearly all actives have a fitted effect of over 60% in size
# cond: purified enzyme assay, Rhodamine110 substrate fluorescence, 15 min; series mostly up to 114 µM
Inconclusive results are not listed. Calls of active or inactive are those of the source. The call rests on the fitted dose curve; in most records, active means well fitted inhibition curve with a large enough effect; inconclusive means small, poorly fitted or top-dose-only effect; inactive means no such curve, though single readings can be large or run the other way.
Thanks in advance; please answer with one of these: class 1 for active, class 0 for inactive

As a guide, the following entries are already answered.
CC(C)c1cc(C(C)C)c(CC(=O)NS(=O)(=O)Oc2c(C(C)C)cccc2C(C)C)c(C(C)C)c1	class 1
c1cc(N[C@@H]2CCNC2)nc(-c2cnc3ccc(-c4cn[nH]c4)cn23)c1	class 0
Cc1ccc(-n2[nH]c(C)c(N=Nc3cccc(-c4cccc(C(=O)O)c4)c3O)c2=O)cc1C	class 1

Prompt: Short answer needed: outcome of this test for "O=c1c(O)c(-c2ccc(O)c(O)c2)oc2cc(O)ccc12" ?
Completion: class 1

Prompt: Check the results log: what was the call for "CCCCCCCCc1ccc(CCC(N)(CO)CO)cc1" ?
Completion: class 0

Prompt: // param item: "C[C@@H](NCc1cc2ccccc2[nH]1)c1cccc2ccccc12" ; yields the recorded call
Completion: class 0

Prompt: Field: outcome | Entry: "CN(C)CC(=O)N1CCC(c2ccc(NC(=O)c3ncc(C#N)[nH]3)c(C3=CCCCC3)c2)CC1"
Completion: class 1

Prompt: State the result this test recorded for "CNC(=O)c1cccc(-c2ccc3c(N4CCOC[C@H]4C)nc(N4CCOC[C@H]4C)nc3n2)c1" .
Completion: class 0

###

Catalogue of compounds with associated max response
# System: HaCat
# assay_summary: Cytotoxic Profiling of Annotated Libraries Using Quantitative High-Throughput Screening (AID 1296008); note: % is set by controls: 0 for no effect and ±100 for the full control effect; nearly all actives have a fitted effect of over 60% in size
# cond: Five cell lines viability, CellTiter-Glo ATP luminescence, 48-72 h; stronger effect = lower value
Inconclusive results are not listed. Calls of active or inactive are those of the source. Calls come from the whole dose curve; as a rule, active = well fitted inhibition curve with a large enough effect; inconclusive = small, poorly fitted or top-dose-only effect; inactive = flat fitted curve, though single readings scatter.

O=C(C=CC=Cc1ccc2c(c1)OCO2)N1CCCCC1	-2.24% (inactive)

Then this compound:
Prompt: Recorded max response of "CCOC(=O)C=C[C@H](C[C@@H]1CCNC1=O)NC(=O)[C@@H](CC(=O)[C@@H](NC(=O)c1cc(C)on1)C(C)C)Cc1ccc(F)cc1" , please.
Completion: -7.58% (inactive)

###

# assay_summary: Primary qHTS for small molecule stabilizers of the endoplasmic reticulum resident proteome: Secreted ER Calcium Modulated Protein (SERCaMP) assay (AID 1508630); note: % is set by controls: 0 for no effect and ±100 for the full control effect
# cond: SH-SY5Y GLuc-SERCaMP (Gaussia luciferase released on ER calcium loss) secretion, thapsigargin, luminescence; series mostly up to 38.4 µM
# Excerpt: Assay Provider: Brandon K. Harvey Ph.D. National Institute on Drug Abuse, National Institutes of Health, Baltimore, MD Endoplasmic reticulum (ER) dysregulation is associated with human pathologies including neurodegenerative, cardiovascular, muscular, and diabetic conditions. […] To identify such compounds, we performed a quantitative high-throughput screen (qHTS) using the SERCaMP assay, which monitors secretion of ER resident proteins triggered by calcium depletion. […]
Records with an inconclusive call do not appear. Active and inactive are the calls of the source. Calls follow the shape of the dose curve; as a rule, active = well fitted inhibition curve with a large enough effect; inconclusive = small, poorly fitted or top-dose-only effect; inactive = no such curve, though single readings can be large or run the other way.
recorded_metric: activity change, negative = inhibition

CCN1CCN(C(=O)N[C@H](C(=O)N[C@@H]2C(=O)N3C(C(=O)O)=C(CSc4nnnn4C)CS[C@@H]23)c2ccc(O)cc2)C(=O)C1=O	inactive
CC(C)(O)CC[C@@H](O)[C@](C)(O)[C@H]1CC[C@@]2(O)C3=CC(=O)[C@@H]4C[C@@H](O)[C@@H](O)C[C@]4(C)[C@@H]3CC[C@]12C	inactive
Cc1cc(O)c2c(c1)C(=O)c1cccc(O)c1C2=O	inactive
O=C(C=CC#Cc1cccc(NS(=O)(=O)c2ccccc2)c1)NO	inactive

###

# assay_summary: qHTS profiling of the MIPE4 collection as inhibitors of Plasmodium falciparum (3D7) proliferation (AID 743344);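 note: scaled between DMSO vehicle wells and 0.29 µM artemisinin as full inhibition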
# cond: P. falciparum 3D7 in erythrocytes, SYBR Green DNA fluorescence, 72 h; at 28.5 µM (top of the series) unless noted
parasite growth, % of DMSO control class ranges: 1: < 20%; 2: ≥ 20% and < 70%; 3: ≥ 70%

Below are worked cases with known answers.
O=C1c2c(O)cccc2[C@@H]([C@@H]2O[C@H](CO)[C@@H](O)[C@H](O)[C@H]2O)c2cc(CO)cc(O)c21	3
CC(C)(O)CC[C@@H](O)[C@](C)(O)[C@H]1CC[C@@]2(O)C3=CC(=O)[C@@H]4C[C@@H](O)[C@@H](O)C[C@]4(C)[C@@H]3CC[C@]12C	3
O=C(Nc1ccc(Oc2ccnc3[nH]ccc23)c(F)c1)c1cccn(-c2ccc(F)cc2)c1=O	2
Cn1cnc2c(F)c(Nc3ccc(Br)cc3F)c(C(=O)NOCCO)cc21	3
NC(=O)Nc1cc(-c2ccc(CN3CCOCC3)cc2)sc1C(N)=O	2
CN(CC(=O)N(Cc1ccc(C2CCCCC2)cc1)c1ccc(C(=O)O)c(O)c1)S(=O)(=O)c1c(F)c(F)c(F)c(F)c1F	2
O=c1c(O)c(-c2ccc(O)c(O)c2)oc2cc(O)ccc12	1
CC(C(C)N1CC(=O)NC(=O)C1)N1CC(=O)NC(=O)C1 (centres undefined)	3

Prompt: Please classify: "O=C(C=CC=Cc1ccc2c(c1)OCO2)N1CCCCC1"
Completion: 3

Prompt: Quick check: band for CCC(C(=O)O)C1CCC(C)C(C(C)C(O)C(C)C(=O)C(CC)C2OC3(C=CC(O)[C@@]4(CC[C@](C)(C5CC[C@@](O)(CC)C(C)O5)O4)O3)C(C)CC2C)O1 (some centres undefined)
Completion: 1

Prompt: Note: place this molecule into its band. Item: "CN(C)CCN1C(=O)c2cccc3cc(N)cc(c23)C1=O"
Completion: 1

Prompt: Which parasite growth, % of DMSO control category applies to "Cn1cnc(=N)c2[nH]cnc21" here?
Completion: 1

Prompt: Which parasite growth, % of DMSO control band matches "O=S(=O)(O)CCSSCCS(=O)(=O)O" ?
Completion: 3

###

# assay_summary: qHTS of pediatric cancer cell lines to identify multiple opportunities for drug repurposing: Confirmatory screen for NB-EBc1 cells (AID 1347115);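 note: cells exposed to compound for 48 h before the viability read; nearly all actives have a fitted effect of over 45% in size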
# cond: NB-EBc1 neuroblastoma cells, viability (cytotoxicity); series mostly up to 45.9 µM
Inconclusive results are not listed. Activity calls are given as the source filed them. The call rests on the fitted dose curve; in most records, active means well fitted cell-killing curve with a large enough effect; inconclusive means small, poorly fitted or top-dose-only effect, or effect the other way; inactive means no such curve, though single readings can be large or run the other way.
Lab note: assign the record to one of label 1 (active), label 0 (inactive)

These solved cases illustrate the format of a correct answer.
CC(C)(O)Cn1c(NC(=O)c2ccc(-c3cn[nH]c3)s2)nc2cc(CN3CCOCC3)ccc21	label 1
O=C(O)C[C@H](O)C[C@H](O)C=Cc1c(C2CC2)nc2ccccc2c1-c1ccc(F)cc1	label 0
Cn1cnc(=N)c2[nH]cnc21	label 0
CC(=O)NCC(=O)N1[C@H]2CC[C@H]1c1cc(Nc3ncc(C(F)(F)F)c(NC4CCC4)n3)ccc12	label 1
CN[C@H]1[C@@H](O)[C@@H]2O[C@@H]3O[C@H](C)CC(=O)[C@]3(O)O[C@@H]2[C@@H](NC)[C@H]1O	label 0
COc1cc(O)c2c(c1)C1OC1C[C@H](O)[C@H](O)C(=O)C=CC[C@H](C)OC2=O (stereo partly drawn)	label 1
CCC(C=C[C@@H]1OC(=O)C=C[C@H]1C)=C[C@H](C)CC=CC(C)=C[C@@H](C)C(=O)[C@@H](C)[C@H](O)[C@@H](C)CC(C)=CC(=O)O	label 1
C[N+](C)([O-])CCNc1ccc(NCC[N+](C)(C)[O-])c2c1C(=O)c1c(O)ccc(O)c1C2=O	label 0

Prompt: Hi team, can someone confirm the assay call for "CC(C)(N)c1ccc(-c2nc3ccccc3nc2-c2ccccc2)cc1" ?
Completion: label 0

Prompt: For "CC(=O)N1CCN(c2ccc(OCc3nn(C)c(C)c3-c3cccc4c(CCCOc5cccc6ccccc56)c(C(=O)O)n(Cc5cccnc5)c34)cc2)CC1" , which call appears in the assay record?
Completion: label 0

Prompt: Hey, what did the test say about "Cc1[nH]c(C=C2C(=O)Nc3ccccc32)c(C)c1CCC(=O)O" ?
Completion: label 0

Prompt: So what was the verdict on C=CC(=O)Nc1cccc(Nc2nc(NC3CCC(N(C)C)CC3)nc3c2ncn3C(C)C)c1 (stereo not drawn) in this test?
Completion: label 1

Prompt: Hi, do you know how "Nc1ncn([C@@H]2O[C@H](CO)[C@@H](O)[C@@H]2O)c(=O)n1" came out in this test?
Completion: label 1

Prompt: Hey, what did the test say about "N#CNC(=NCCCCCCOc1ccc(Cl)cc1)Nc1ccncc1" ?
Completion: label 1

Prompt: Which outcome was entered for the compound "COc1cc2c(cc1OC)[C@@H]1C(=O)c3ccc4c(c3O[C@@H]1CO2)C=CC(C)(C)O4" in this test?
Completion: label 1

Prompt: Assay outcome for "CC(=O)ON=C1C(c2c(O)[nH]c3cc(Br)ccc23)=Nc2ccccc21" : what was it?
Completion: label 1

Prompt: Dear colleague, could you share the recorded outcome for "Cc1nc(NC(=O)N2CCC[C@@H]2C(N)=O)sc1-c1ccnc(C(C)(C)C(F)(F)F)c1" when you have a moment?
Completion: label 1

Prompt: Write down the call the test reported for this compound. Item: "O=C(C=CC#Cc1cccc(NS(=O)(=O)c2ccccc2)c1)NO"
Completion: label 1
